# Tested on: chicken embryos
# PROTOCOL CONDITIONS: 5 μg/embryo, global treatment, 48 hours post drug application
ENDPOINT LABEL: survival rate

Sure, the documented survival rate for Cc1ccc(Nc2nccc(N(C)c3ccc4c(C)n(C)nc4c3)n2)cc1S(N)(=O)=O [Pazopanib, pazopanib] is 30%

Sure, the documented survival rate for CNC(=O)c1cc(Oc2ccc(NC(=O)Nc3ccc(Cl)c(C(F)(F)F)c3)cc2)ccn1 [Sorafenib, sorafenib] is 54.5%

----------
# Tested on: fli1:EGFP zebrafish embryos
# RUN DESCRIPTION: fli1:EGFP zebrafish embryo exposure: survival and intersegmental vessel development
# Type: in vivo
# PROTOCOL CONDITIONS: 100 μg/mL, 24 hours after exposure
ENDPOINT LABEL: survival

Sure, the documented survival for "CNC(=O)c1ccccc1Sc1ccc2c(/C=C/c3ccccn3)n[nH]c2c1" is 38.89%

Sure, the documented survival for "CCN(CC)CCNC(=O)c1c(C)[nH]c(/C=C2\C(=O)Nc3ccc(F)cc32)c1C" is 0%

Sure, the documented survival for "CO[C@H]1C[C@@H]2CC[C@@H](C)[C@@](O)(O2)C(=O)C(=O)N2CCCC[C@H]2C(=O)O[C@H]([C@H](C)C[C@@H]2CC[C@@H](OCCO)[C@H](OC)C2)CC(=O)[C@H](C)/C=C(\C)[C@@H](O)[C@@H](OC)C(=O)[C@H](C)C[C@H](C)/C=C/C=C/C=C/1C" is 35.71%

Sure, the documented survival for "COc1cc2c(Nc3ccc(Br)cc3F)ncnc2cc1OCC1CCN(C)CC1" is 10%

Sure, the documented survival for "Cc1ccc(Nc2nccc(N(C)c3ccc4c(C)n(C)nc4c3)n2)cc1S(N)(=O)=O" is 50%

----------
# Test system: fli1:EGFP zebrafish embryos
# RUN DESCRIPTION: fli1:EGFP zebrafish embryo exposure: survival and intersegmental vessel development
# Format: in vivo
# PROTOCOL CONDITIONS: 50 μg/mL, 24 hours after exposure
Give survival for every item shown.
Provide only the numeric value, understood in %.

Record "CNC(=O)c1ccccc1Sc1ccc2c(/C=C/c3ccccn3)n[nH]c2c1" ; system fli1:EGFP zebrafish embryos; survival = 42.12

Record "CCN(CC)CCNC(=O)c1c(C)[nH]c(/C=C2\C(=O)Nc3ccc(F)cc32)c1C" ; system fli1:EGFP zebrafish embryos; survival = 21.05

Record "Cc1ccc(Nc2nccc(N(C)c3ccc4c(C)n(C)nc4c3)n2)cc1S(N)(=O)=O" ; system fli1:EGFP zebrafish embryos; survival = 83.33

Record "COc1cc2c(Nc3ccc(Br)cc3F)ncnc2cc1OCC1CCN(C)CC1" ; system fli1:EGFP zebrafish embryos; survival = 15.38

Record "CNC(=O)c1cc(Oc2ccc(NC(=O)Nc3ccc(Cl)c(C(F)(F)F)c3)cc2)ccn1" ; system fli1:EGFP zebrafish embryos; survival = 15.38

----------
# Tested on: chicken embryos
# PROTOCOL CONDITIONS: 5 μg/embryo, global treatment, 48 hours post drug application
ENDPOINT LABEL: survival rate (%)
Provide only the numeric value, understood in %.

Sure, the documented survival rate for CO[C@H]1C[C@@H]2CC[C@@H](C)[C@@](O)(O2)C(=O)C(=O)N2CCCC[C@H]2C(=O)O[C@H]([C@H](C)C[C@@H]2CC[C@@H](OCCO)[C@H](OC)C2)CC(=O)[C@H](C)/C=C(\C)[C@@H](O)[C@@H](OC)C(=O)[C@H](C)C[C@H](C)/C=C/C=C/C=C/1C [Everolimus, everolimus] is 80

Sure, the documented survival rate for CCN(CC)CCNC(=O)c1c(C)[nH]c(/C=C2\C(=O)Nc3ccc(F)cc32)c1C [Sunitinib, sunitinib] is 72
